# TARGET_UNDER_TEST: binding partner of C5A (XPA23)
# EXPERIMENTAL_PROTOCOL: Biacore K-off
MEASUREMENT_TYPE: fold difference in affinity vs original (fold)
Give the value, in units of fold, as a plain number.

Some binders with known fold difference in affinity vs original results, for comparison:
Q. Complete the entry with fold difference in affinity vs original for C5A (XPA23) VL D92S (antibody, V domains shown) VH: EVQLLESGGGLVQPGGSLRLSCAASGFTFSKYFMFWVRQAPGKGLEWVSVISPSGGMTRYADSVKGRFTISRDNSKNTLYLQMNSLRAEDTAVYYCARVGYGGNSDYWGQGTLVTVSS VL: DIQMTQSPSSVSASVGDRLTIICRASQDINRWLAWYQQTPGNAPKLLIHSATSLQSGVPSRFSGSGSGTDFTLTINSLQPEDFATYYCQQASSFPLTFGGGTKVEIK
A. 6.59

Q. Name the recorded fold difference in affinity vs original of the binder listed here: C5A (XPA23) VL S50N (antibody, V domains shown) VH: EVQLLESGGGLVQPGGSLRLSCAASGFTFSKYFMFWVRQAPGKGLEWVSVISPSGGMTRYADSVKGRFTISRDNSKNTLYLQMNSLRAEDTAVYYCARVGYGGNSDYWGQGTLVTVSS VL: DIQMTQSPSSVSASVGDRLTIICRASQDINRWLAWYQQTPGNAPKLLIHNATSLQSGVPSRFSGSGSGTDFTLTINSLQPEDFATYYCQQADSFPLTFGGGTKVEIK
A. 0.25

More entries:
Q. For C5A (XPA23) VL S93I (antibody, V domains shown) VH: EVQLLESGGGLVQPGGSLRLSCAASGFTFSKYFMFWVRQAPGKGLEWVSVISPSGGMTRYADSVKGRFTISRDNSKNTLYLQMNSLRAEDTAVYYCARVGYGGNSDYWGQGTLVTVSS VL: DIQMTQSPSSVSASVGDRLTIICRASQDINRWLAWYQQTPGNAPKLLIHSATSLQSGVPSRFSGSGSGTDFTLTINSLQPEDFATYYCQQADIFPLTFGGGTKVEIK , write its fold difference in affinity vs original.
A. 1.35
